target: Histone deacetylase 3 (Homo sapiens)
Sequence (O15379 whole entry): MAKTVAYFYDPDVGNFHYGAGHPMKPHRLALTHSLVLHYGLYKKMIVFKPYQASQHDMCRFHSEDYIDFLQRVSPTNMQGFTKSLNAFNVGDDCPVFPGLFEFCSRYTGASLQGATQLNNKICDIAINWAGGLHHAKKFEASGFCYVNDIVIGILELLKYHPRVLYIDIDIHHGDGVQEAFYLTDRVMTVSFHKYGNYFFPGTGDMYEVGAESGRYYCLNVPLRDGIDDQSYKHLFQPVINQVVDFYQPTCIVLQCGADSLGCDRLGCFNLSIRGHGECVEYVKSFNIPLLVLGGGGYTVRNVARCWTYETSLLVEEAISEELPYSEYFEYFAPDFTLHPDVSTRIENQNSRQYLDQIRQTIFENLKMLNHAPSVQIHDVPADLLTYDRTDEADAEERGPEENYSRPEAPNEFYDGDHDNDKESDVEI
pIC50: −log10 of the molar value.
Would you mind classing the entries by pIC50? Ranges: low band = under 8, middle band = from 8 up to 9, high band = 9 and over

Sample answers from the record:
compound="CCC(=O)CCCCCC(NC(=O)c1cncs1)c1[nH]c(-c2ccccc2)nc1C(=O)NC (centres undefined)" discrete_label="middle band"
compound="CCC(=O)CCCCCC(NC(=O)c1cncs1)c1[nH]c(-c2ccccc2)nc1C(=O)N1CCOCC1 (centres undefined)" discrete_label="low band"
compound=CCC(=O)CCCCC[C@H](NC(=O)[C@H]1CC12CCN(C)CC2)c1[nH]c(-c2cccnc2OC)nc1C#N discrete_label="low band"
compound=CCC(=O)CCCCC[C@H](NC(=O)C12CCN(CC1)CC2)c1[nH]c(-c2ccc(F)cc2)nc1C#N discrete_label="middle band"
compound=CCC(=O)CCCCC[C@H](NC(=O)[C@H]1CC12CCN(C)CC2)c1[nH]c(-c2ccc(-c3cccnc3)cc2)nc1C#N discrete_label="high band"

Query: Into which bin does this compound go? CCC(=O)CCCCCC(NC(=O)c1cncs1)c1[nH]c(-c2ccccc2)nc1C(=O)NCCN(C)C (centres undefined)
Result: middle band

Query: Consider CCC(=O)CCCCC[C@H](NC(=O)[C@H]1CC12CCN(C)CC2)c1[nH]c(-c2ccc(C(F)(F)F)cc2)nc1C#N . To which pIC50 class does it belong?
Result: middle band

Query: Hey, which category is CCC(=O)CCCCC[C@H](NC(=O)C1CCOCC1)c1[nH]c(-c2ccc(F)cc2)nc1C(N)=O in, do you know?
Result: middle band

Query: Lab log: CCC(=O)CCCCC[C@H](NC(=O)c1cncs1)c1[nH]c(-c2ccc(F)cc2)nc1C#N — assign pIC50 category
Result: middle band

Query: Just checking, what class would you give CCC(=O)CCCCC[C@H](NC(=O)[C@H]1CC12CCN(C)CC2)c1[nH]c(-c2ccc3nn(C)cc3c2)nc1C#N here?
Result: high band

====

Target: Protein deacetylase HDAC6 (Homo sapiens)
Sequence (Q9UBN7 whole entry): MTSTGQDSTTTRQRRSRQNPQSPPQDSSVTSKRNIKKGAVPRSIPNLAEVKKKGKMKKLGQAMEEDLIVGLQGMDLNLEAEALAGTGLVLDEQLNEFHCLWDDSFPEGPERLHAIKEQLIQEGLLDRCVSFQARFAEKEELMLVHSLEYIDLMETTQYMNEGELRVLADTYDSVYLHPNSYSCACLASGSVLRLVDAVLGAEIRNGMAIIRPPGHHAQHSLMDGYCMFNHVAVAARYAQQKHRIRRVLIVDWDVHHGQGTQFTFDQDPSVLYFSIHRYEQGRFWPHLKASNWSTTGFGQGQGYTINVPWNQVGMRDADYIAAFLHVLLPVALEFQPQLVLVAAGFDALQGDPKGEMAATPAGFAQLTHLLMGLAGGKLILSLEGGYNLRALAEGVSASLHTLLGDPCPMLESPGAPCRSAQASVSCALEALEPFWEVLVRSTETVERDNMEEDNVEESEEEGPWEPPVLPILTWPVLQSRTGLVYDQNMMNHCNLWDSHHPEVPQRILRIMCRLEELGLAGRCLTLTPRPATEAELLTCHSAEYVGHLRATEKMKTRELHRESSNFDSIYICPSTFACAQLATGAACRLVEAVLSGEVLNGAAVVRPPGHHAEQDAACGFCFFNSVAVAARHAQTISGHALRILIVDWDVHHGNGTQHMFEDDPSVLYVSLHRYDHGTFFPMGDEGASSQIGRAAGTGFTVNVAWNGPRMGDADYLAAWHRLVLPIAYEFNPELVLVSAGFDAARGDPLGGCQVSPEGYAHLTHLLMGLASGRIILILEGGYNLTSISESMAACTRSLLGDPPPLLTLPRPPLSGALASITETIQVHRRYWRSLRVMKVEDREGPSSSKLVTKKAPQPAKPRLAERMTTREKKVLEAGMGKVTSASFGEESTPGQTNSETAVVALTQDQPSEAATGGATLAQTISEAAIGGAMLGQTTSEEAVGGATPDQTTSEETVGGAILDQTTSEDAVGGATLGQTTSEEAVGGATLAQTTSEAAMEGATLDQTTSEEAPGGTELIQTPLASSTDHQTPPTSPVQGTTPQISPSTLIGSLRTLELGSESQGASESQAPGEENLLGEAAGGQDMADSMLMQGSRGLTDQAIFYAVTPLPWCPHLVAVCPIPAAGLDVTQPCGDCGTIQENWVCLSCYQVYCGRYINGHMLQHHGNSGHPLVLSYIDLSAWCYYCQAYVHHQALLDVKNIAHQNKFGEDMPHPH
# maps each entry to its IC50
Quick note: give the figure in µM, leave out the unit.

Worked examples, 2 compounds total:
compound=CCC(=O)CCCCC[C@H](NC(=O)[C@H]1CC12CCN(C)CC2)c1[nH]c(-c2ccccc2F)nc1C#N unit_abbrev=µM quantitative_readout=22.5
compound=CCC(=O)CCCCC[C@H](NC(=O)[C@H]1CC12CCN(CC)CC2)c1[nH]c(-c2ccc(F)cc2)nc1C(N)=O unit_abbrev=µM quantitative_readout=17.5

Next:
Short answer for CCC(=O)CCCCC[C@H](NC(=O)C1CCOCC1)c1[nH]c(-c2ccc(F)cc2)nc1C(N)=O : IC50 was 27.9

====

Catalogue of EC50 readings, one per entry.
target: Class 1 histone deacetylase (Homo sapiens, UniProt Q13547+O15379+Q92769+Q9BY41); test: Inhibition of Class 1 HDAC in VSV-G-pseudotyped HIV infected human 2C4 cell Jurkat model assessed as reactivation of HIV latency in presence of 5% NHS by fluorescent reporter gene assay
Your answer should be a plain number; it is taken to be in µM.

Solved cases (5 shown):
molecule=CCC(=O)CCCCC[C@H](NC(=O)[C@H]1CC12CCN(CC)CC2)c1[nH]c(-c2ccc(F)cc2)nc1C(N)=O measured_property=EC50 unit_abbrev=µM quantitative_readout=0.165
molecule="CCC(=O)CCCCCC(NC(=O)c1cncs1)c1[nH]c(-c2ccccc2)nc1C(=O)NC (configuration not stated)" measured_property=EC50 unit_abbrev=µM quantitative_readout=1.804
molecule=CCC(=O)CCCCC[C@H](NC(=O)c1cncs1)c1[nH]c(-c2ccc(F)cc2)nc1C#N measured_property=EC50 unit_abbrev=µM quantitative_readout=1.111
molecule=CCC(=O)CCCCC[C@H](NC(=O)[C@H]1CC12CCN(C)CC2)c1[nH]c(-c2ccc(F)cc2F)nc1C#N measured_property=EC50 unit_abbrev=µM quantitative_readout=1.26
molecule=CCC(=O)CCCCC[C@H](NC(=O)[C@H]1CC12CCN(C)CC2)c1[nH]c(-c2cccnc2OC)nc1C#N measured_property=EC50 unit_abbrev=µM quantitative_readout=1.669

Bench note, Class 1 histone deacetylase (Homo sapiens, UniProt Q13547+O15379+Q92769+Q9BY41): entry CCC(=O)CCCCC[C@H](NC(=O)[C@H]1CC12CCN(C)CC2)c1[nH]c(-c2ccc3nc(C)ccc3c2)nc1C#N , its EC50 = 0.097

Noted EC50 for CCC(=O)CCCCCC(NC(=O)c1cncs1)c1[nH]c(-c2ccccc2)nc1C(N)=O (configuration not stated) , tested on Class 1 histone deacetylase (Homo sapiens, UniProt Q13547+O15379+Q92769+Q9BY41): 0.537

====

biological target: Class 1 histone deacetylase (Homo sapiens, UniProt Q13547+O15379+Q92769+Q9BY41); experiment: Inhibition of Class 1 HDAC in VSV-G-pseudotyped HIV infected human 2C4 cell Jurkat model assessed as reactivation of HIV latency in presence of 0.1% NHS by fluorescent reporter gene assay
Below, each entry is listed with its recorded EC50.
The answer is to be given in nM; state only the numeric part.

Before answering, review these 4 worked examples.
compound=CCC(=O)CCCCC[C@H](NC(=O)[C@H]1CC12CCN(C)CC2)c1[nH]c(-c2cc3ccccc3nc2OC)nc1C#N unit_abbrev=nM quantitative_readout=548
compound=CCC(=O)CCCCC[C@H](NC(=O)c1cncs1)c1[nH]c(-c2ccc(F)cc2)nc1C#N unit_abbrev=nM quantitative_readout=254
compound=CCC(=O)CCCCC[C@H](NC(=O)[C@H]1CC12CCN(CC)CC2)c1[nH]c(-c2ccc(F)cc2)nc1C(N)=O unit_abbrev=nM quantitative_readout=193
compound="CCC(=O)CCCCCC(NC(=O)c1cncs1)c1[nH]c(-c2ccccc2)nc1C(N)=O (centres undefined)" unit_abbrev=nM quantitative_readout=154

The reported value for CCC(=O)CCCCC[C@H](NC(=O)[C@H]1CC12CCN(C)CC2)c1[nH]c(-c2ccc(F)cc2)nc1C(N)=O in terms of EC50 is 166

EC50 reading for CCC(=O)CCCCC[C@H](NC(=O)[C@H]1CC12CCN(CC)CC2)c1[nH]c(-c2ccc(F)cc2)nc1C#N : 161

Summary for this compound, CCC(=O)CCCCCC(NC(=O)c1cncs1)c1[nH]c(-c2ccccc2)nc1C(=O)N1CCOCC1 (centres undefined) : EC50 is 2729

Sample CCC(=O)CCCCC[C@H](NC(=O)[C@H]1CC12CCN(C)CC2)c1[nH]c(-c2ccc(C(F)(F)F)cc2)nc1C#N ; EC50 observed: 107

Documented EC50 of CCC(=O)CCCCC[C@H](NC(=O)[C@H]1CC12CCN(C)CC2)c1[nH]c(-c2ccccc2F)nc1C#N : 566
